Source of measurements: patent US20250250357A1

assay_target: T1, human MSLN-FL-his protein (human, UniProt Q13421 296-580)
T1 construct: made in HEK293E cells, purified on nickel column; also called hMSLN-FL-his; human MSLN full-length protein; not shown: His tag
T1 sequence (Q13421 other isoform, or with tags, fused parts or gaps): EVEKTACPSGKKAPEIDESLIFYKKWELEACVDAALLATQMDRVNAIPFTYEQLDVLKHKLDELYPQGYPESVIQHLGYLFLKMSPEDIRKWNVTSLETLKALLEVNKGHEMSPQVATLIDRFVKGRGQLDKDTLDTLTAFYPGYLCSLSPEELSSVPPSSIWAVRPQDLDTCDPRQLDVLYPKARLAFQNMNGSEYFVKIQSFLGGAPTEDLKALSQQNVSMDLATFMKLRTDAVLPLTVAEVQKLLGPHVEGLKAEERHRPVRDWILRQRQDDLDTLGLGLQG
test_details: competitive ELISA; row F8-18.9; further: test concentration or dose not given here
Catalogue of competition rate values
Answer in %, number only, no unit symbol.

S009-F8-19.21 (antibody, human IgG1, kappa, V domains shown, human-murine chimeric antibody, human IgG1/kappa constant regions) VH: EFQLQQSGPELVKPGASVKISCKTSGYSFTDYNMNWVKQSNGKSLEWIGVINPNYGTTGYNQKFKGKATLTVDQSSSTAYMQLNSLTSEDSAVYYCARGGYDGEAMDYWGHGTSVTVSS VL: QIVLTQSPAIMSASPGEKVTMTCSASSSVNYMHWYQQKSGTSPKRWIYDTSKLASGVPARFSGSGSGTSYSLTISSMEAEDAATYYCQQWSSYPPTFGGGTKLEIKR; 6.96

We next turn to a different binder, shown below.
[in] Item under review: S009-F8-7.5 (antibody, human IgG1, kappa, V domains shown, human-murine chimeric antibody, human IgG1/kappa constant regions) VH: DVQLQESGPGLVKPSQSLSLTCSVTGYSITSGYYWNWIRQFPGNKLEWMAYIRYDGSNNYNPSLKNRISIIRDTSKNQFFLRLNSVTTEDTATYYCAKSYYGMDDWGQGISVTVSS VL: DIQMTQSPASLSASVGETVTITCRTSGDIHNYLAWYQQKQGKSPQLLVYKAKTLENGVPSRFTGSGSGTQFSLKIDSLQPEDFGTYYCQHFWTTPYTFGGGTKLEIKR . Reported competition rate?
[out] 11.2
